Measured Target: Phospho-N-acetylmuramoyl-pentapeptide-transferase (Aquifex aeolicus (strain VF5))
Sequence (O66465 whole entry): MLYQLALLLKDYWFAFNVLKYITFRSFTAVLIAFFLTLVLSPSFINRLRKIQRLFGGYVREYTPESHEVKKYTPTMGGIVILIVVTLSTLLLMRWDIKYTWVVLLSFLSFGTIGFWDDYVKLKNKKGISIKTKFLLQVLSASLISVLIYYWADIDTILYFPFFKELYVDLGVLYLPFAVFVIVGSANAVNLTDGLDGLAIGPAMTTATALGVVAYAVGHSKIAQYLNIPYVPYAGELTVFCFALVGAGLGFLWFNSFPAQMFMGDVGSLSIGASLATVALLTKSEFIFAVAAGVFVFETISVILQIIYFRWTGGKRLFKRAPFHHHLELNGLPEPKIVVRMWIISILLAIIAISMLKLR
Protocol Summary: Inhibition of MraY in Aquifex aeolicus
Quick list: IC50 per entry.

CCCCCCCCCCn1cc(C[C@H](O[C@@H]2O[C@H](CN)[C@@H](O)[C@H]2O)[C@H]2O[C@@H](n3ccc(=O)[nH]c3=O)[C@H](O)[C@@H]2O)nn1	15 µM

-- ask Tell me reported IC50 for "NC[C@H]1O[C@@H](O[C@@H](Cn2cc(Cc3ccc(COc4ccc(C(=O)c5ccccc5)cc4)cc3)nn2)[C@H]2O[C@@H](n3ccc(=O)[nH]c3=O)[C@H](O)[C@@H]2O)[C@H](O)[C@@H]1O" , tested with Phospho-N-acetylmuramoyl-pentapeptide-transferase (Aquifex aeolicus (strain VF5)).
-- reply 100 µM

-- ask Tell me reported IC50 for "NC[C@H]1O[C@@H](O[C@H]([C@H]2O[C@@H](n3ccc(=O)[nH]c3=O)[C@H](O)[C@@H]2O)n2cc(CCCCCCCCCCOc3ccc(C(=O)c4ccccc4)cc3)nn2)[C@H](O)[C@@H]1O" , tested with Phospho-N-acetylmuramoyl-pentapeptide-transferase (Aquifex aeolicus (strain VF5)).
-- reply 25 µM
